z-score for assorted compounds
Test: inhibitors of hydroxyurea-induced Chk1 phosphorylation, primary screen, imaging, HeLa, phospho-Chk1 nuclear intensity (AID 1187); note: test concentration not given here
Conditions: hydroxyurea-induced phospho-Chk1 immunofluorescence imaging, higher = more signal
Activity calls are given as the source filed them. The rule behind the calls is not given here.

Below: 4 compounds and their reported z-score.
COMPOUND	z-score
C[C@@H](OCc1ccccc1)C1NC(=O)[C@@]23C(=O)N[C@@H](Cc4ccccc4)C2[C@H](C)[C@@]2(C)O[C@H]2C3/C=C/C/C=C\CNC(=O)[C@@H]2CCCN2C1=O (stereo partly specified)	0.427 (inactive)
CC(C)N1C(=O)c2ccccc2[C@@H](C(=O)NCc2ccccc2)[C@@H]1c1ccc(CO)cc1	-0.869 (inactive)
C=CCN1C(=O)[C@@]2(O[C@@H](CCO)[C@H]([Si](C)(C)c3ccc(OC)cc3)[C@H]2C)c2cc(N(C=O)c3ccccc3)ccc21	-0.407 (inactive)
COc1ccc([Si](C)(C)[C@H]2[C@H](CCO)O[C@@]3(C(=O)N(Cc4ccc(N5C(=O)c6cccc7cccc5c67)cc4)c4ccccc43)[C@@H]2C)cc1	-1.39 (inactive)

Inquiry: # z-score lookup, item "CCCC[C@@H](O)C1=C(C)C[C@H]2C(=O)N(C)C(=O)[C@H]2[C@H]1CO"
Reply text: -0.185 (inactive)

Inquiry: Can you check "C=CCOC(=O)[C@H]1[C@@H]2C(=O)O[C@@H](c3ccccc3)[C@@H](c3ccccc3)N2[C@@H](c2ccc(OCCOC(=O)[C@H]3C[C@H]4C(=O)N5CCC[C@H]5C(=O)N4[C@H]3c3cccc(OCCO)c3)cc2)[C@]12C(=O)Nc1ccccc12" next?
Reply text: 0.5 (inactive)

---

Target: Dickkopf-related protein 1 (Homo sapiens) (UniProt O94907)
Sequence (O94907 whole entry, looked up): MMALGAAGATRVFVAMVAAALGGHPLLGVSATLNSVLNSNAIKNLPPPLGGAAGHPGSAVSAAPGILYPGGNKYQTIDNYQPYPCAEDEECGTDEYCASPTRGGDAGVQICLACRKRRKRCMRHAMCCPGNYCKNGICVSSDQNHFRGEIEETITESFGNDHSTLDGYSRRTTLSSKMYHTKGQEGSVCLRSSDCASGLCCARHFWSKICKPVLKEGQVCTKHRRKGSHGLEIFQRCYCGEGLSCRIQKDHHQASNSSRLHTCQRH
Test: DKK1 binders on small-molecule microarrays, primary screen, biochemical, small-molecule microarray, 635 nm fluorescence scan (AID 1106);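 note: score merges emission near 667 nm with signal to noise over three replicate slides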
Conditions: DKK1 binding, higher = more signal
MEASUREMENT NAME: composite z-score
I only need the number, thanks.

Here is how some compounds turned out for composite z-score.
COMPOUND	composite z-score
O=C(NC1CC1)[C@@H]1c2ccccc2C(=O)N(Cc2ccccc2C(F)(F)F)[C@H]1c1ccc(CO)cc1	0.113
CC(C)C[C@@H]1NC(=O)[C@H]2C[C@@H](C(=O)NCCCC[N+](C)(C)C)[C@@H](c3cccc(OCCO)c3)N2C1=O	1.23
O=C(O)[C@H]1C[C@H]2C(=O)N[C@@H](Cc3ccccc3)C(=O)N2[C@H]1c1ccc(O)cc1	-0.0944
C=CCC(OC(C)=O)[C@@H]1[C@@H](N(Cc2ccc(-c3ccccc3)cc2)C(=O)c2ccc(-c3ccccc3)cc2)c2cc(OCCCO)ccc2N1C(=O)c1ccc(-c2ccccc2)cc1 (stereo partly drawn)	-0.141
COc1ccc(CCNC(=O)[C@@]2(Sc3ccc(C)cc3)CC(=O)N(Cc3ccccc3)[C@@H]2c2ccc(CO)cc2I)cc1	0.0928
COCCOC(=O)N1C(=O)[C@@]2(c3cc(C#CC4(O)CCCCCC4)ccc31)[C@H](c1ccccc1OCCO)N1[C@H](c3ccccc3)[C@H](c3ccccc3)OC(=O)[C@H]1[C@@H]2C(=O)Nc1nc2ccccc2s1	0.816
O=C(N1CCCCC1)[C@@]1(Cc2ccccc2)N=C(c2ccc(OCCCO)cc2)O[C@H]1c1ccccc1	0.0474
C=C(C1=CCN(S(=O)(=O)c2ccc(C)cc2)C1)[C@@H](OC(C)=O)[C@@H]1CCCN1S(=O)(=O)c1ccccc1[N+](=O)[O-]	-0.239

Inquiry: // lookup composite z-score for "CO[C@H]1O[C@H](CO)[C@@H](OC(=O)CCc2ccccc2)[C@@H]2OC(=O)[C@H](Cc3ccccc3)C/C=C/C[C@@H](Cc3ccccc3)C(=O)O[C@@H]12"
Reply text: -0.844

Inquiry: Please give the result for "Cc1ccc(N2C(=O)c3ccccc3[C@](C)(C(=O)NC3CC3)[C@@H]2c2ccc(CO)cc2)nc1" too.
Reply text: 0.272
